Some molecules, each annotated with its measured Population Healthy Nuclei (%).
- Tested on: Fibroblast
- Assay Overview: Multiplex assay against human fibroblast
- Type: toxicity, cell-based
- Experimental Conditions: 48 h, 10 µM, compound concentration 10 uM, replicate 2
A number alone suffices; assume %.

The cases that follow already have their Population Healthy Nuclei (%) on record.
molecule=COc1cc2nc(N3CCN(C(=O)COc4c(OC)cccc4C(C)C)CC3)nc(N)c2cc1OC.Cl.Cl property_name="Population Healthy Nuclei (%)" measured=33
molecule="CN1CCN2c3ccccc3Cc3ccccc3C2C1.Cl (configuration not stated) [MIANSERIN HYDROCHLORIDE]" property_name="Population Healthy Nuclei (%)" measured=55
molecule=CCc1nn2c(C)cc(C)nc2c1Cc1ccc(-c2nnc(C3CCNCC3)o2)cc1 property_name="Population Healthy Nuclei (%)" measured=47
molecule=Cc1cc(-c2ccc3c(c2)CC[C@H]3N2CC3(CCN(C(=O)Cc4cn5cc(C)sc5n4)CC3)C2)ncn1 property_name="Population Healthy Nuclei (%)" measured=51
molecule=Cc1cc(O)c(-c2ccc([C@@H](C)CN(C)C)cc2)c2c1[nH]c(=O)c1sccc12 property_name="Population Healthy Nuclei (%)" measured=43

Attention now turns to another entry.
Record S=C(NCCCc1c[nH]cn1)NCCCN(Cc1ccc(Cl)c(Cl)c1)c1ccc(Br)cn1 , field Population Healthy Nuclei (%): 60
